Biological target: T1, P12-AA
T1 chain: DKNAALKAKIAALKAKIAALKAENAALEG
Experiment: two-hybrid library CCmax;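 further: natural log of median RNA to DNA barcode read ratio; higher means stronger binding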
Conditions: mean of both orientations
Catalogue of binders with associated interaction score
Respond using a number only.

Lab book: interaction score of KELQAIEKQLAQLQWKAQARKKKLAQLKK [4H_APH] noted as -1.3

Lab book: interaction score of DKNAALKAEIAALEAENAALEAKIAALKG [4H3606-AA] noted as -0.654

Lab book: interaction score of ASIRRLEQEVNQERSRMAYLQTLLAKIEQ [4H_BCR] noted as -1.94

Lab book: interaction score of DELAAEEAKNAALKAKLAAAKAEIAALEG [AP7-AA] noted as -1.62

Lab book: interaction score of DELAANEAELAAEEAKLAAAKAKAAALKG [AP4-AA] noted as -1.45

Lab book: interaction score of DKLAAIKAKLAANKAKKAALKAKAAALKG [AP2-AA] noted as -1.59

Lab book: interaction score of DEEAALEAKAAALKAELAANEAKLAAAKG [AP6-AA] noted as -1.57

Lab book: interaction score of DELAAIEAELAAEEAENAALEAEAAALEG [AP1-AA] noted as -1.66
